test system: 616215-338-R-J1-PDC complex spheroid viability; assay: Anticancer human tumor 616215-338-R-J1-PDC patient-derived colon adenocarcinoma cell line growth inhibition [POLQ]; conditions: second compound 1 µM; first compound 3.16 µM; active compounds read low
quantity-measured: viability, T/C (%)

COc1cccc2c1C(=O)c1c(O)c3c(c(O)c1C2=O)CC(O)(C(=O)CO)CC3OC1CC(N)C(O)C(C)O1 (stereo not drawn) + COC1C(OC(N)=O)C(O)C(Oc2ccc3c(O)c(NC(=O)c4ccc(O)c(CC=C(C)C)c4)c(=O)oc3c2C)OC1(C)C; 6.46
COc1cc(C2c3cc4c(cc3C(OC3OC5COC(C)OC5C(O)C3O)C3COC(=O)C23)OCO4)cc(OC)c1O (stereo not drawn) + COC1C(OC(N)=O)C(O)C(Oc2ccc3c(O)c(NC(=O)c4ccc(O)c(CC=C(C)C)c4)c(=O)oc3c2C)OC1(C)C; 74.5
CC(C)n1c(=O)n(C)c2cnc3cc(F)c(-c4ccc(OCCCN5CCCCC5)nc4)cc3c21 + Cc1cccc(N(C)C(=O)C2C(O)CCN2c2nc(C)cc(C(F)(F)F)c2C#N)c1; 114

====

test system: 616215-338-R-J1-PDC complex spheroid viability; test: Anticancer human tumor 616215-338-R-J1-PDC cell line growth inhibition [POLQ]; conditions: second compound 1 µM; first compound 0.0316 µM; active compounds read low;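 also: spheroids exposed to compounds for one week before readout; percent viability relative to DMSO vehicle wells taken as 100%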
quantity-measured: viability, T/C (%)

CCc1c2c(nc3ccc(O)cc13)-c1cc3c(c(=O)n1C2)COC(=O)[C@]3(O)CC + COC1C(OC(N)=O)C(O)C(Oc2ccc3c(O)c(NC(=O)c4ccc(O)c(CC=C(C)C)c4)c(=O)oc3c2C)OC1(C)C; 60.7
O=C(Nc1ccc(O)c(NS(=O)(=O)c2ccc(F)cc2)c1)c1ccc(-c2ccccc2)cc1 + Cc1cccc(N(C)C(=O)C2C(O)CCN2c2nc(C)cc(C(F)(F)F)c2C#N)c1; 98.3
C#Cc1c(F)ccc2cc(O)cc(-c3ncc4c(N5CC6CCC(C5)N6)nc(OCC56CCCN5CC(F)C6)nc4c3F)c12 (stereo not given) + Nc1ccc(C#CCN(C(=O)Cc2ncc(C(F)(F)F)cc2C(F)(F)F)c2ccc(F)cc2)nn1; 103
C=CC(=O)N1CCN(c2nc(=O)n(-c3c(C)ccnc3C(C)C)c3nc(-c4c(O)cccc4F)c(F)cc23)C(C)C1 (stereo not given) + Cc1cccc(N(C)C(=O)C2C(O)CCN2c2nc(C)cc(C(F)(F)F)c2C#N)c1; 96.7
C#Cc1c(F)ccc2cc(O)cc(-c3ncc4c(N5CC6CCC(C5)N6)nc(OCC56CCCN5CC(F)C6)nc4c3F)c12 (stereo not given) + COC1C(OC(N)=O)C(O)C(Oc2ccc3c(O)c(NC(=O)c4ccc(O)c(CC=C(C)C)c4)c(=O)oc3c2C)OC1(C)C; 105
Cn1ncnc1[C@H]1c2n[nH]c(=O)c3cc(F)cc(c23)N[C@@H]1c1ccc(F)cc1 + Nc1ccc(C#CCN(C(=O)Cc2ncc(C(F)(F)F)cc2C(F)(F)F)c2ccc(F)cc2)nn1; 91.2
CC1COCCN1c1cc(C2(O)CC3CCC(C2)O3)c2cnn(-c3ccn[nH]3)c2n1 (stereo not given) + Nc1ccc(C#CCN(C(=O)Cc2ncc(C(F)(F)F)cc2C(F)(F)F)c2ccc(F)cc2)nn1; 94.1
C=CCn1c(=O)c2cnc(Nc3ccc(N4CCN(C)CC4)cc3)nc2n1-c1cccc(C(C)(C)O)n1 + Cc1cccc(N(C)C(=O)C2C(O)CCN2c2nc(C)cc(C(F)(F)F)c2C#N)c1; 92.5
COc1cc(C2c3cc4c(cc3C(OC3OC5COC(C)OC5C(O)C3O)C3COC(=O)C23)OCO4)cc(OC)c1O (stereo not given) + COC1C(OC(N)=O)C(O)C(Oc2ccc3c(O)c(NC(=O)c4ccc(O)c(CC=C(C)C)c4)c(=O)oc3c2C)OC1(C)C; 104
CNCc1ccc(-c2[nH]c3cc(F)cc4c3c2CCNC4=O)cc1 + Nc1ccc(C#CCN(C(=O)Cc2ncc(C(F)(F)F)cc2C(F)(F)F)c2ccc(F)cc2)nn1; 107
Cn1ncnc1[C@H]1c2n[nH]c(=O)c3cc(F)cc(c23)N[C@@H]1c1ccc(F)cc1 + COC1C(OC(N)=O)C(O)C(Oc2ccc3c(O)c(NC(=O)c4ccc(O)c(CC=C(C)C)c4)c(=O)oc3c2C)OC1(C)C; 107
CC1COCCN1c1cc(-c2ccnn2C)c2ccnc(-c3ccn[nH]3)c2n1 (stereo not given) + COC1C(OC(N)=O)C(O)C(Oc2ccc3c(O)c(NC(=O)c4ccc(O)c(CC=C(C)C)c4)c(=O)oc3c2C)OC1(C)C; 103
O=c1[nH]cc(F)c(=O)[nH]1 + Nc1ccc(C#CCN(C(=O)Cc2ncc(C(F)(F)F)cc2C(F)(F)F)c2ccc(F)cc2)nn1; 97.5
CCc1c2c(nc3ccc(O)cc13)-c1cc3c(c(=O)n1C2)COC(=O)[C@]3(O)CC + Nc1ccc(C#CCN(C(=O)Cc2ncc(C(F)(F)F)cc2C(F)(F)F)c2ccc(F)cc2)nn1; 34
COc1cc2cc(C(=O)CCC(=O)O)sc2cc1OC + Nc1ccc(C#CCN(C(=O)Cc2ncc(C(F)(F)F)cc2C(F)(F)F)c2ccc(F)cc2)nn1; 110
Nc1ccn(C2OC(CO)C(O)C2(F)F)c(=O)n1 (stereo not given) + Nc1ccc(C#CCN(C(=O)Cc2ncc(C(F)(F)F)cc2C(F)(F)F)c2ccc(F)cc2)nn1; 22.7
CC1COCCN1c1cc(C2(O)CC3CCC(C2)O3)c2cnn(-c3ccn[nH]3)c2n1 (stereo not given) + COC1C(OC(N)=O)C(O)C(Oc2ccc3c(O)c(NC(=O)c4ccc(O)c(CC=C(C)C)c4)c(=O)oc3c2C)OC1(C)C; 105
CCc1cc2c(N3CCc4c(cc(Cn5ccnc5)cc4-c4cn(C)nc4C(F)(F)F)C3=O)cc(C)nc2c(OC)n1 + Nc1ccc(C#CCN(C(=O)Cc2ncc(C(F)(F)F)cc2C(F)(F)F)c2ccc(F)cc2)nn1; 115
COc1cccc2c1C(=O)c1c(O)c3c(c(O)c1C2=O)CC(O)(C(=O)CO)CC3OC1CC(N)C(O)C(C)O1 (stereo not given) + Nc1ccc(C#CCN(C(=O)Cc2ncc(C(F)(F)F)cc2C(F)(F)F)c2ccc(F)cc2)nn1; 65.2
CC[C@@]1(O)C(=O)OCc2c1cc1n(c2=O)Cc2cc3c(CN(C)C)c(O)ccc3nc2-1 + COC1C(OC(N)=O)C(O)C(Oc2ccc3c(O)c(NC(=O)c4ccc(O)c(CC=C(C)C)c4)c(=O)oc3c2C)OC1(C)C; 101
